Examples of molecules with documented Activity follow.
tested on: Rattus norvegicus; experiment: Reduction of prostate weight in orally dosed immature rat; type: functional, Prostate gland; parameters: scale not given: the % may be the effect or the level left
Use % as the unit, but write only the number.

[ask] // lookup Activity for C[C@@](O)(CSCC(F)(F)F)c1cc2cc([N+](=O)[O-])c(C(F)(F)F)cc2[nH]1
[reply] 46

[ask] One more molecule: CCCSC[C@@](C)(O)c1cc2cc([N+](=O)[O-])c(C(F)(F)F)cc2[nH]1
[reply] 40

[ask] One more molecule: CCSC[C@](C)(O)c1cc2cc(C#N)c(C(F)(F)F)cc2[nH]1
[reply] 100

[ask] One more molecule: CCSC[C@](C)(O)c1cc2cc(C#N)c(C(F)(F)F)cc2n1C
[reply] 43

[ask] One more molecule: O=[N+]([O-])c1cc2cc(C3(O)CCSC3)[nH]c2cc1C(F)(F)F (stereo unspecified)
[reply] 49

[ask] One more molecule: CCSC[C@@](C)(OC)c1cc2cc([N+](=O)[O-])c(C(F)(F)F)cc2[nH]1
[reply] 76

[ask] One more molecule: CSC[C@@](C)(O)c1cc2cc([N+](=O)[O-])c(C(F)(F)F)cc2[nH]1
[reply] 66

[ask] One more molecule: CCSC[C@](C)(O)c1cc2cc(C#N)c(C(F)(F)F)cc2n1COC
[reply] 37

[ask] One more molecule: CCSC[C@](C)(O)c1[nH]c2cc(C(F)(F)F)c(C#N)cc2c1C
[reply] 61

[ask] One more molecule: CCSC[C@](C)(O)c1cc2ccccc2[nH]1
[reply] 26

[ask] One more molecule: CC[S+]([O-])C[C@](C)(O)c1cc2cc(C#N)c(C(F)(F)F)cc2[nH]1 (stereo partly specified)
[reply] 62

----------
assay: Oral bioavailability in mature rat; assay type: ADME, organism-based; details: in vivo
experimental.endpoint: bioavailability (%)
Use % as the unit, but write only the number.

[ask] // lookup bioavailability for CCS(=O)(=O)C[C@](C)(O)c1cc2cc(C#N)c(C(F)(F)F)cc2[nH]1
[reply] 68

----------
test system: Rattus norvegicus; test: Reduction of prostate weight in orally dosed immature rat; type: functional, Prostate gland
Examples of compounds with documented ID50 follow.
Use mg/day as the unit, but write only the number.

[ask] // lookup ID50 for CCS(=O)(=O)C[C@](C)(O)c1[nH]c2cc(C(F)(F)F)c(C#N)cc2c1C
[reply] 2.4

[ask] One more compound: CCSC[C@](C)(O)c1cc2cc(C#N)c(C(F)(F)F)cc2[nH]1
[reply] 0.44

[ask] One more compound: CCS(=O)(=O)C[C@](C)(O)c1cc2cc(C#N)c(C(F)(F)F)cc2[nH]1
[reply] 0.89

[ask] One more compound: CC(O)(CS(=O)(=O)c1ccc(F)cc1)C(=O)Nc1ccc(C#N)c(C(F)(F)F)c1 (stereo not given) [BICALUTAMIDE]
[reply] 0.44

[ask] One more compound: CCc1c([C@@](C)(O)CS(=O)(=O)CC)[nH]c2cc(C(F)(F)F)c(C#N)cc12
[reply] 1.4

----------
system: Rattus norvegicus; assay: Reduction of prostate weight in orally dosed immature rat; type: functional, Prostate gland; design: scale not given: the % may be the effect or the level left
Activity strictly under 60% means Fulfilled; at 60% or over means Not fulfilled.

CSCC[C@@](C)(O)c1cc2cc([N+](=O)[O-])c(C(F)(F)F)cc2[nH]1 :: Fulfilled
CCSC[C@](C)(O)c1cc2cc(C#N)c(C(F)(F)F)cc2[nH]1 :: Not fulfilled
CCS(=O)(=O)C[C@](C)(O)c1cc2cc(C#N)c(C(F)(F)F)cc2[nH]1 :: Not fulfilled
CCSC[C@](C)(O)c1cc2cc(C#N)c(C(F)(F)F)cc2n1CC :: Fulfilled
CC(C)CSC[C@@](C)(O)c1cc2cc([N+](=O)[O-])c(C(F)(F)F)cc2[nH]1 :: Not fulfilled

[ask] A record lists CCSC[C@@](C)(O)c1cc2cc([N+](=O)[O-])c(C(F)(F)F)cc2[nH]1 . Is its Activity below 60%?
[reply] Not fulfilled

[ask] One more compound: CCSC[C@](O)(CC)c1cc2cc([N+](=O)[O-])c(C(F)(F)F)cc2[nH]1
[reply] Not fulfilled

[ask] One more compound: CCSC[C@](C)(O)c1cc2cc(C#N)c(C(F)(F)F)cc2n1CC(F)(F)F
[reply] Fulfilled

[ask] One more compound: CC(C)SC[C@@](C)(O)c1cc2cc([N+](=O)[O-])c(C(F)(F)F)cc2[nH]1
[reply] Fulfilled

----------
Examples of molecules with documented half-life follow.
test: Half life in mature rat; format: ADME, organism-based; settings: in vivo
Use h as the unit, but write only the number.

Here's what some known entries look like.
CCS(=O)(=O)C[C@](C)(O)c1[nH]c2cc(C(F)(F)F)c(C#N)cc2c1C :: 2
CCc1c([C@@](C)(O)CS(=O)(=O)CC)[nH]c2cc(C(F)(F)F)c(C#N)cc12 :: 0.9

Could you now look at the following molecule, please?
[ask] // lookup half-life for CCS(=O)(=O)C[C@](C)(O)c1cc2cc(C#N)c(C(F)(F)F)cc2[nH]1
[reply] 52

----------
Examples of compounds with documented Activity follow.
system: Rattus norvegicus; assay: Reduction of prostate weight in orally dosed immature rat; type: functional, Prostate gland; parameters: scale not given: the % may be the effect or the level left
Use % as the unit, but write only the number.

CC(O)(CS(=O)(=O)c1ccc(F)cc1)C(=O)Nc1ccc(C#N)c(C(F)(F)F)c1 (stereo not given) [BICALUTAMIDE] :: 75

[ask] // lookup Activity for CCSCC(O)(CSCC)c1cc2cc([N+](=O)[O-])c(C(F)(F)F)cc2[nH]1
[reply] 32

[ask] One more compound: CCSC[C@](C)(O)c1cc2cc(C)c(C(F)(F)F)cc2[nH]1
[reply] 22

[ask] One more compound: CCSC[C@](C)(O)c1cc2cc([N+](=O)[O-])ccc2[nH]1
[reply] 34

[ask] One more compound: CCSC[C@](C)(O)c1cc2cc(C#N)c(Cl)cc2[nH]1
[reply] 83

----------
Examples of compounds with documented Activity follow.
system: Rattus norvegicus; experiment: Reduction of prostate weight in orally dosed immature rat; format: functional, Prostate gland; set-up: scale not given: the % may be the effect or the level left
Use % as the unit, but write only the number.

Here's what some known entries look like.
C[C@@](O)(CSCc1cccs1)c1cc2cc([N+](=O)[O-])c(C(F)(F)F)cc2[nH]1 :: 28
CCSCC(C)(O)c1cc2cc([N+](=O)[O-])cc(C(F)(F)F)c2[nH]1 (stereo not given) :: 66

[ask] // lookup Activity for C[C@@](O)(CSCc1ccccc1)c1cc2cc([N+](=O)[O-])c(C(F)(F)F)cc2[nH]1
[reply] 54

[ask] One more compound: CCSCC(O)c1cc2cc([N+](=O)[O-])c(C(F)(F)F)cc2[nH]1 (stereo not given)
[reply] 30

[ask] One more compound: CCSC[C@](C)(O)c1cc2cc(Cl)c(C(F)(F)F)cc2[nH]1
[reply] 54

[ask] One more compound: CCCCSC[C@@](C)(O)c1cc2cc([N+](=O)[O-])c(C(F)(F)F)cc2[nH]1
[reply] 40

[ask] One more compound: CCSC[C@](C)(O)c1cc2cc(F)c(Cl)cc2[nH]1
[reply] 60

[ask] One more compound: CCSC[C@](C)(O)c1cc2cc(F)c(C(F)(F)F)cc2[nH]1
[reply] 58

[ask] One more compound: CCSC[C@](C)(O)c1cc2cc([N+](=O)[O-])c(C(F)(F)F)cc2o1
[reply] 38

[ask] One more compound: C[C@@](O)(CSCc1ccco1)c1cc2cc([N+](=O)[O-])c(C(F)(F)F)cc2[nH]1
[reply] 46
